# Assayed System: feline FcRn (FCN-F82W3, Acrobiosystems) (feline)
# Test Protocol: SPR Carterra, IgG coupled, pH 6.0

# Binder, Units Label, Kd
measured = [
    ("anti-NGF feline IgG1a, Fc variant L309Y (antibody, part only; not given: anti-NGF variable domains, light chain, not shown: another chain or arm of the molecule; small tags and cut ends) Fc: PPEMLGGPSIFIFPPKPKDTLSISRTPEVTCLVVDLGPDDSDVQITWFVDNTQVYTAKTSPREEQFNSTYRVVSVLPIYHQDWLKGKEFKCKVNSKSLPSPIERTISKAKGQPHEPQVYVLPPAQEELSRNKVSVTCLIKSFHPPDIAVEWEITGQPEPENNYRTTPPQLDSDGTYFVYSKLSVDRSHWQRGNTYTCSVSHEALHSHHTQKSLTQSPGK", "nM", 196),
    ("anti-NGF feline IgG1a, Fc variant S434Y, T286E (antibody, part only; not given: anti-NGF variable domains, light chain, not shown: another chain or arm of the molecule; small tags and cut ends) Fc: PPEMLGGPSIFIFPPKPKDTLSISRTPEVTCLVVDLGPDDSDVQITWFVDNTQVYEAKTSPREEQFNSTYRVVSVLPILHQDWLKGKEFKCKVNSKSLPSPIERTISKAKGQPHEPQVYVLPPAQEELSRNKVSVTCLIKSFHPPDIAVEWEITGQPEPENNYRTTPPQLDSDGTYFVYSKLSVDRSHWQRGNTYTCSVSHEALHYHHTQKSLTQSPGK", "nM", 3.6),
    ("anti-NGF feline IgG1a, Fc variant S252R, L262Q (antibody, part only; not given: anti-NGF variable domains, light chain, not shown: another chain or arm of the molecule; small tags and cut ends) Fc: PPEMLGGPSIFIFPPKPKDTLRISRTPEVTCQVVDLGPDDSDVQITWFVDNTQVYTAKTSPREEQFNSTYRVVSVLPILHQDWLKGKEFKCKVNSKSLPSPIERTISKAKGQPHEPQVYVLPPAQEELSRNKVSVTCLIKSFHPPDIAVEWEITGQPEPENNYRTTPPQLDSDGTYFVYSKLSVDRSHWQRGNTYTCSVSHEALHSHHTQKSLTQSPGK", "nM", 4.9),
    ("anti-NGF feline IgG1a, Fc variant T286E (antibody, part only; not given: anti-NGF variable domains, light chain, not shown: another chain or arm of the molecule; small tags and cut ends) Fc: PPEMLGGPSIFIFPPKPKDTLSISRTPEVTCLVVDLGPDDSDVQITWFVDNTQVYEAKTSPREEQFNSTYRVVSVLPILHQDWLKGKEFKCKVNSKSLPSPIERTISKAKGQPHEPQVYVLPPAQEELSRNKVSVTCLIKSFHPPDIAVEWEITGQPEPENNYRTTPPQLDSDGTYFVYSKLSVDRSHWQRGNTYTCSVSHEALHSHHTQKSLTQSPGK", "nM", 93.4),
    ("anti-NGF feline IgG1a, Fc variant L309E (antibody, part only; not given: anti-NGF variable domains, light chain, not shown: another chain or arm of the molecule; small tags and cut ends) Fc: PPEMLGGPSIFIFPPKPKDTLSISRTPEVTCLVVDLGPDDSDVQITWFVDNTQVYTAKTSPREEQFNSTYRVVSVLPIEHQDWLKGKEFKCKVNSKSLPSPIERTISKAKGQPHEPQVYVLPPAQEELSRNKVSVTCLIKSFHPPDIAVEWEITGQPEPENNYRTTPPQLDSDGTYFVYSKLSVDRSHWQRGNTYTCSVSHEALHSHHTQKSLTQSPGK", "nM", 102),
    ("anti-NGF feline IgG1a, Fc variant S434Y, L262E (antibody, part only; not given: Anti-NGF variable domains, not shown: another chain or arm of the molecule; small tags and cut ends) Fc: PPEMLGGPSIFIFPPKPKDTLSISRTPEVTCEVVDLGPDDSDVQITWFVDNTQVYTAKTSPREEQFNSTYRVVSVLPILHQDWLKGKEFKCKVNSKSLPSPIERTISKAKGQPHEPQVYVLPPAQEELSRNKVSVTCLIKSFHPPDIAVEWEITGQPEPENNYRTTPPQLDSDGTYFVYSKLSVDRSHWQRGNTYTCSVSHEALHYHHTQKSLTQSPGK", "nM", 3.3),
    ("anti-NGF feline IgG1a, Fc variant K326D (antibody, part only; not given: anti-NGF variable domains, not shown: another chain or arm of the molecule; small tags and cut ends) Fc: PPEMLGGPSIFIFPPKPKDTLSISRTPEVTCLVVDLGPDDSDVQITWFVDNTQVYTAKTSPREEQFNSTYRVVSVLPILHQDWLKGKEFKCKVNSDSLPSPIERTISKAKGQPHEPQVYVLPPAQEELSRNKVSVTCLIKSFHPPDIAVEWEITGQPEPENNYRTTPPQLDSDGTYFVYSKLSVDRSHWQRGNTYTCSVSHEALHSHHTQKSLTQSPGK", "nM", 136),
    ("anti-NGF feline IgG1a, Fc variant S428L, S252R (antibody, part only; not given: anti-NGF variable domains, not shown: another chain or arm of the molecule; small tags and cut ends) Fc: PPEMLGGPSIFIFPPKPKDTLRISRTPEVTCLVVDLGPDDSDVQITWFVDNTQVYTAKTSPREEQFNSTYRVVSVLPILHQDWLKGKEFKCKVNSKSLPSPIERTISKAKGQPHEPQVYVLPPAQEELSRNKVSVTCLIKSFHPPDIAVEWEITGQPEPENNYRTTPPQLDSDGTYFVYSKLSVDRSHWQRGNTYTCSVLHEALHSHHTQKSLTQSPGK", "nM", 9),
    ("anti-NGF feline IgG1a, Fc variant S426H (antibody, part only; not given: anti-NGF variable domains, not shown: another chain or arm of the molecule; small tags and cut ends) Fc: PPEMLGGPSIFIFPPKPKDTLSISRTPEVTCLVVDLGPDDSDVQITWFVDNTQVYTAKTSPREEQFNSTYRVVSVLPILHQDWLKGKEFKCKVNSKSLPSPIERTISKAKGQPHEPQVYVLPPAQEELSRNKVSVTCLIKSFHPPDIAVEWEITGQPEPENNYRTTPPQLDSDGTYFVYSKLSVDRSHWQRGNTYTCHVSHEALHSHHTQKSLTQSPGK", "nM", 171),
    ("anti-NGF feline IgG1a, Fc variant E380T (antibody, part only; not given: anti-NGF variable domains, not shown: another chain or arm of the molecule; small tags and cut ends) Fc: PPEMLGGPSIFIFPPKPKDTLSISRTPEVTCLVVDLGPDDSDVQITWFVDNTQVYTAKTSPREEQFNSTYRVVSVLPILHQDWLKGKEFKCKVNSKSLPSPIERTISKAKGQPHEPQVYVLPPAQEELSRNKVSVTCLIKSFHPPDIAVTWEITGQPEPENNYRTTPPQLDSDGTYFVYSKLSVDRSHWQRGNTYTCSVSHEALHSHHTQKSLTQSPGK", "nM", 116),
]

Recorded values, source patent US20250304650A1.
